Where these numbers come from: the supplement of paper PMC6522484

system: SW480; test: cell viability (CellTiter-Glo) relative to plate median (fraction of plate median); higher = more viable cells; settings: 10 µM; treatment time 24 h; reporter: 7TFP
property-name: cell viability

# example entries with known answers
> print(dat)
                                   molecule   property.name  reported
1  O=C(Nc1cccc(Cl)c1)Nc1ncc(CCNc2ncnc3ccsc23)s1  cell viability     0.922
2  CN(C)C/C=C/C(=O)Nc1cc2c(Nc3ccc(F)c(Cl)c3)ncnc2cc1O[C@H]1CCOC1  cell viability      1.18
3  CN1CCN(C2CCN(C(=O)Nc3cc(Oc4ccc(NC(=O)C5(C(=O)Nc6ccc(F)cc6)CC5)c(F)c4)ccn3)CC2)CC1 [Golvatinib (E7050)]  cell viability      1.16
4  Nc1ncnc2c1c(-c1cccc(OCc3ccccc3)c1)cn2C1CC(CN2CCCC2)C1 (centres undefined)  cell viability     0.952

INPUT: Need cell viability, item O=c1cc(N2CCOCC2)oc2c(-c3cccc4c3sc3ccccc34)cccc12
OUTPUT: 1.04

INPUT: Fill in: cell viability of CNC(=O)c1cc(Oc2ccc(NC(=O)Nc3ccc(Cl)c(C(F)(F)F)c3)cc2)ccn1 is ___
OUTPUT: 1.04

INPUT: Name the reported cell viability value associated with the molecule CC(C)(C)Cn1c(N)nc2ccc(-c3[nH]c(C(C)(C)C)nc3-c3ccc(F)cc3)nc21
OUTPUT: 1.11

INPUT: Can you look up the measured cell viability of Oc1cccc(-c2nc(N3CCOCC3)c3oc4ncccc4c3n2)c1 for me?
OUTPUT: 1.12

INPUT: Name the recorded cell viability for CCn1nnc2c(N3CCOCC3)nc(-c3ccc(NC(=O)Nc4ccc(C(=O)N5CCN(C)CC5)cc4)cc3)nc21 .
OUTPUT: 1.14

INPUT: Quick one: cell viability of O=C(NCCCNc1nc(Nc2cccc(NC(=O)N3CCCC3)c2)ncc1I)c1cccs1 ?
OUTPUT: 1.06

INPUT: Quick one: cell viability for Nc1nc(N)c2nc(-c3cccc(O)c3)cnc2n1 ?
OUTPUT: 1.04
